- Tested on: A549
- test-summary: MTT cytotoxicity on various cancer cells (Table 1)
- Assay type: cell-based, human
- cond: human, 48 h
Where a SMILES comes first, the peptide text is derived from it. [ ]: non-standard residue; d: D form. pGlu = O=C1CC[C@@H](C(=O)O)N1
value-kind: Cytotoxicity (IC50) A549

Cytotoxicity (IC50) A549 reported for this compound CCNC(=O)[C@@H]1CCCN1C(=O)[C@@H](NC(=O)[C@H](Cc1ccccc1)NC(=O)[C@H](CCCNC(=N)N)NC(=O)[C@@H]1CCCN1C(=O)[C@H](C)NC(=O)[C@H](Cc1ccc(O)cc1)NC(=O)[C@H](CO)NC(=O)[C@H](Cc1c[nH]c2ccccc12)NC(=O)[C@H](Cc1c[nH]cn1)NC(=O)[C@@H]1CCC(=O)N1)[C@@H](C)CC [HS1003] ([pGlu]HWSYAPRFIP-NHEt; C-terminus assumed) : 9.48 ± 0.08 µg/mL

----------
- Test system: A549
- test-summary: MTT cytotoxicity on various cancer cells (Table 1)
- Assay type: cell-based, human
- cond: human, 48 h
Where a SMILES comes first, the peptide text is derived from it.
Cytotoxicity (IC50) A549 values, listed per item
Write your answer as a measured quantity: the number, then the unit.

CC(C)C[C@H](NC(=O)[C@H](C)NC(=O)[C@@H]1CCCN1C(=O)[C@H](CCCNC(=N)N)NC(=O)[C@H](C)NC(=O)[C@@H](N)CCC(=O)O)C(=O)N[C@@H](CC(C)C)C(=O)N[C@@H](CO)C(=O)N[C@H](C(=O)N[C@@H](CCCNC(=N)N)C(=O)N[C@@H](Cc1ccccc1)C(=O)N[C@@H](CCCNC(=N)N)C(=O)N1CCC[C@H]1C(=O)N[C@@H](CCCCN)C(=O)O)[C@@H](C)O [HS1005] (H-EARPALLSTRFRPK-OH; N-terminus and C-terminus assumed) :: 14.75 ± 0.83 µg/mL
CC(C)C[C@H](NC(=O)CNC(=O)[C@@H](NC(=O)[C@H](CO)NC(=O)[C@H](CC(C)C)NC(=O)[C@H](CC(C)C)NC(=O)[C@H](C)NC(=O)[C@@H]1CCCN1C(=O)[C@H](CCCNC(=N)N)NC(=O)[C@H](C)NC(=O)[C@@H](N)CCC(=O)O)[C@@H](C)O)C(=O)N[C@@H](CCCNC(=N)N)C(=O)N1CCC[C@H]1C(=O)N[C@@H](CCCCN)C(=O)O [HS1006] (H-EARPALLSTGLRPK-OH; N-terminus and C-terminus assumed) :: 10.68 ± 0.25 µg/mL

Below: the item to evaluate.
Cytotoxicity (IC50) A549 reported for this compound CC(C)C[C@H](NC(=O)[C@H](C)NC(=O)[C@@H]1CCCN1C(=O)[C@H](CCCNC(=N)N)NC(=O)[C@H](C)NC(=O)[C@@H](N)CCC(=O)O)C(=O)N[C@@H](CC(C)C)C(=O)N[C@@H](CO)C(=O)N[C@H](C(=O)N[C@@H](CCCNC(=N)N)C(=O)N[C@@H](CC(C)C)C(=O)N[C@@H](CCCNC(=N)N)C(=O)N1CCC[C@H]1C(=O)O)[C@@H](C)O [HS1001] (H-EARPALLSTRLRP-OH; N-terminus and C-terminus assumed) : 4.18 ± 0.15 µg/mL
